Tested on: Human peripheral blood mononuclear cells
Test: Human Concanavalin-A Proliferation Assay (Con HU Assay)
Type: cell-based
Conditions: Homo sapiens, PBMC, 72 h, concentration 10 μm (in parentheses in the cell); concanavalin-A stimulated human PBMC, 3 days; read-out: % Inhibition of proliferation (at concentrations of 1,10, or 100 μm)
readout-name: inhibition at 10 µM (%)
Give the value in % but do not write % after it.

# compound, inhibition at 10 µM [%]
rows = [
    ("N#Cc1cccc(/C=C\\c2ccc(-n3nc(C(F)(F)F)cc3C(F)(F)F)cc2)c1 [Example 139]", 5),
    ("O=C(Nc1ccc(-n2nc(C(F)(F)F)cc2C(F)(F)F)cc1)c1cc(F)ccc1F [Example 211]", 98),
]

Report inhibition at 10 µM, nothing else, for this compound: COc1ccc(C(=O)Nc2ccc(-n3nc(C(F)(F)F)cc3C(F)(F)F)cc2)cc1 [Example 71]
87
